Target under test: T1, hRET.mmh (human, UniProt P07949 29-635, biotinylated in the ELISA of Example 4 (biot-hRET.mmh); not in the SPR of Example 3)
T1 construct: also called biot-hRET.mmh; soluble monomeric human RET
Assay method text: competition sandwich ELISA: 1 nM biot-hRET.mmh + antibody, plate-coated GDNF/GFRα1 co-complex

Binder	% Max Blocking (%)
H4H8060P (antibody, human IgG4, V domains shown, human IgG4 Fc (H4H prefix)) VH: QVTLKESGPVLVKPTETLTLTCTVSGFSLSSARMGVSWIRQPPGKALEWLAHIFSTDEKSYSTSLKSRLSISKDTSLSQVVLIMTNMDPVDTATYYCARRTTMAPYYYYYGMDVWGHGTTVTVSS VL: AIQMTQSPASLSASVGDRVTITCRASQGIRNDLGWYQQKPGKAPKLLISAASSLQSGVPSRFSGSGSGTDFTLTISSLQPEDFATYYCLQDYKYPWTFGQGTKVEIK	95
H4H8056P (antibody, human IgG4, V domains shown, human IgG4 Fc (H4H prefix)) VH: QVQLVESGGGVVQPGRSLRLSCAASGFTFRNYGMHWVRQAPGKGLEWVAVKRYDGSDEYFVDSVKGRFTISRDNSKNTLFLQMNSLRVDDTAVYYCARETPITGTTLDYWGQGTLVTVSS VL: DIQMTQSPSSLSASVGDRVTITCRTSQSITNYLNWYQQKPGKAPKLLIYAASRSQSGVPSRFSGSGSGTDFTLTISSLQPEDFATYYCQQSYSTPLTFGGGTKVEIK	73
H4H8087P (antibody, human IgG4, V domains shown, human IgG4 Fc (H4H prefix)) VH: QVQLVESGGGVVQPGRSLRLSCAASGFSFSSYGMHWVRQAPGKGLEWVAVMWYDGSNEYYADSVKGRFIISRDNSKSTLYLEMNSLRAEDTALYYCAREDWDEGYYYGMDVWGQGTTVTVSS VL: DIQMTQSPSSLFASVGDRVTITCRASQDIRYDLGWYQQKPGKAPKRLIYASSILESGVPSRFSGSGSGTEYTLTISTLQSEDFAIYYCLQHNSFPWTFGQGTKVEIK	92
